Target: aggregated tau (4R-tau) in CBD brain tissue homogenates (Homo sapiens)
Sequence (P10636 1-441 isoform P10636-8): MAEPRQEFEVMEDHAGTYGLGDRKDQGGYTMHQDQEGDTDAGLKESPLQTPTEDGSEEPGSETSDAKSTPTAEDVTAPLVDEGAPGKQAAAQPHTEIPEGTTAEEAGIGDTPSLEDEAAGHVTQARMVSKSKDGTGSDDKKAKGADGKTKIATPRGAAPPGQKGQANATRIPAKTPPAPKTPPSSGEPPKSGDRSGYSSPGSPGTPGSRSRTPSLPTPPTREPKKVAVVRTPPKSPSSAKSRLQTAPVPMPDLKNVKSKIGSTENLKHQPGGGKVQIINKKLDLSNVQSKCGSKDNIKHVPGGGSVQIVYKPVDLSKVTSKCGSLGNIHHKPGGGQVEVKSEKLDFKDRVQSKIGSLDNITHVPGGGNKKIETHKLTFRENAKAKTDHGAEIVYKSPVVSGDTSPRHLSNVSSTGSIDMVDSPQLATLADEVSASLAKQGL
Assay: In vitro competition (Ki) assay versus [^3H]3, CBD brain tissue homogenate
Assay type: binding
Design: from tissue; host or cells: post-mortem human CBD brain, middle frontal gyrus homogenate
Details: radioligand [^3H]3 ∼1 nM
metric: pKi
One number for each entry, as −log10 of the molar value.

Query string: For O[C@H]1CCN(c2ccc(-c3cc4ccc(F)cc4[nH]3)cn2)C1 [Compound 9, reference compound] , what is its reported pKi?
Result string: 7.40

###

Biological target: human 5-HT2B (Homo sapiens)
Sequence (P41595 whole entry): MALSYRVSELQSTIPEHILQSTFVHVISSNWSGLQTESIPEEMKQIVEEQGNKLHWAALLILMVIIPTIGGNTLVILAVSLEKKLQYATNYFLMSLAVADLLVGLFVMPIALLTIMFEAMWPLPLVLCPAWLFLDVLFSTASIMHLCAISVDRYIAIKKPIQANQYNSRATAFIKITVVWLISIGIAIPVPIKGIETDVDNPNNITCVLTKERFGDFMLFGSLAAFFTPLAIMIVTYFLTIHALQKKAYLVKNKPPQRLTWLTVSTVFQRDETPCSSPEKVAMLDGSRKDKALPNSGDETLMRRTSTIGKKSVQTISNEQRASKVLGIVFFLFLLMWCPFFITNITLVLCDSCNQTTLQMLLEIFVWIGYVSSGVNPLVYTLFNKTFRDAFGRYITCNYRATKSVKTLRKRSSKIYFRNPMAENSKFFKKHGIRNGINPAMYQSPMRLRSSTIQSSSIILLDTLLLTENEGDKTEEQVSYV
Test: Eurofins CNS SafetyScreen panel: 5-HT2B (vs ± DOI)
Details: read-out: Concurrent Ki, Specific binding; reference compound; 5-HT2B (h)
metric: pKi
Answers are plain numbers, as −log10 of the molar value.

Query string: Which pKi is listed for COc1cc(CC(C)N)c(OC)cc1I (racemic) [(±)DOI] ?
Result string: 8.76

###

Molecular target: tyrosine hydroxylase (Rattus norvegicus)
Sequence (P04177 whole entry): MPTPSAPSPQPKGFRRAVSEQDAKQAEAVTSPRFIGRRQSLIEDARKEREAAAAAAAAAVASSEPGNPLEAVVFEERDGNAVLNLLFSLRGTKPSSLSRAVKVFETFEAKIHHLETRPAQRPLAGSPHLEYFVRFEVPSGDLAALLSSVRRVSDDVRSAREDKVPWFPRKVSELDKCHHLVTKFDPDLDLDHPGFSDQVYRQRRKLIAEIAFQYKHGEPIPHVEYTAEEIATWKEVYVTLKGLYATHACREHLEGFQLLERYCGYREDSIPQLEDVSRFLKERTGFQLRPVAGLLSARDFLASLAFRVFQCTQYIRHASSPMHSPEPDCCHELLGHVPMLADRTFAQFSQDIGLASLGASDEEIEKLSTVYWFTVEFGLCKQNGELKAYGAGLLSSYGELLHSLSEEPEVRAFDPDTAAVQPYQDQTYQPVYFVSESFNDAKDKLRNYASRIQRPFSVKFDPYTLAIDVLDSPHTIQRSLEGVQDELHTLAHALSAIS
Test: Eurofins panel: tyrosine hydroxylase
Conditions: reference compound, read-out: Concurrent IC50 (Enzymatic activity)
metric: IC50 (µM)
Numbers only, in µM.

Query string: For the molecule N[C@@H](Cc1ccc(O)c(I)c1)C(=O)O , what IC50 is on record?
Result string: 1.49

###

Biological target: NMDA
Assay: Eurofins panel: NMDA (antagonist radioligand)
Conditions: read-out: Concurrent Ki (Specific binding), reference compound
metric: Ki (nM)
One number for each entry, in nM.

Query string: # get_value(readout='Ki', item= O=C(O)[C@@H]1C[C@H](CP(=O)(O)O)CCN1 )
Result string: 270

###

Biological target: M5 (h) (Homo sapiens)
Sequence (P08912 1-532): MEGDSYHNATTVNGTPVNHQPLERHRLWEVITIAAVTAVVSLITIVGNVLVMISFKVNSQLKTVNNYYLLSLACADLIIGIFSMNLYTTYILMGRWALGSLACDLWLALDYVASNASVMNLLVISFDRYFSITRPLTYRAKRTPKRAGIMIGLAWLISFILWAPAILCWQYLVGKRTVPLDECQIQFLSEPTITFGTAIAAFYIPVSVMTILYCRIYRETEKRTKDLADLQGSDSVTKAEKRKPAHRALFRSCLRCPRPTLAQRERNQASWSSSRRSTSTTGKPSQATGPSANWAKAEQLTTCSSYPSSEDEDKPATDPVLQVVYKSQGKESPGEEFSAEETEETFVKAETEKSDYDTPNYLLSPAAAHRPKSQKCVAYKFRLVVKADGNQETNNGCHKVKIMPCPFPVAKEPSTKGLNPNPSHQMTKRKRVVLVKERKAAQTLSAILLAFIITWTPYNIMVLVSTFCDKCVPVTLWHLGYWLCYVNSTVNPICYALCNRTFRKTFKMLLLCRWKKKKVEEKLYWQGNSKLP
Assay: M5 (h) (antagonist radioligand), Eurofins assay 97
Details: read-out: Concurrent IC50; Specific binding; reference compound
metric: pIC50
Give bare numbers, as −log10 of the molar value.

Query string: Dear colleague, I am looking for the recorded pIC50 of the following compound: C[N+]1(C)CCC(OC(=O)C(c2ccccc2)c2ccccc2)CC1.[I-]
Result string: 8.63
